The entries that follow carry pKi values tested on D(4) dopamine receptor (Homo sapiens), drawn from several published reports.
pKi: −log10 of the molar value.
observation-type: pKi

molecule=c1ccc(C2CCN(Cc3ccn(-c4ccccc4)c3)CC2)cc1 tested_on="D(4) dopamine receptor (Homo sapiens)" observation_type=pKi value=8.05
molecule=CCCN(CCNC(=O)/N=N/c1ccc(F)cc1)C1Cc2ccccc2C1 tested_on="D(4) dopamine receptor (Homo sapiens)" observation_type=pKi value=9.00
molecule=O=C(c1ccc(F)cc1)C1CCN(CCn2c(=O)[nH]c3ccccc3c2=O)CC1 tested_on="D(4) dopamine receptor (Homo sapiens)" observation_type=pKi value=8.46
molecule=O=Cc1cnn2c(OCCCCN3CCN(c4cccc(Cl)c4Cl)CC3)cccc12 tested_on="D(4) dopamine receptor (Homo sapiens)" observation_type=pKi value=7.11
molecule=COc1cc2c(cc1O)CN(CCCCNC(=O)c1ccnc3ccccc13)CC2 tested_on="D(4) dopamine receptor (Homo sapiens)" observation_type=pKi value=6.39
molecule="COc1ccccc1N1CCN(CCNC(=O)C2CCCc3c(OC)cccc32)CC1 (stereo unspecified)" tested_on="D(4) dopamine receptor (Homo sapiens)" observation_type=pKi value=7.66
molecule="C[C@@H]1OC(c2ccccc2)=N[C@H]1CN1CCN(c2ccccc2)CC1 (stereo in doubt; 4b)" tested_on="D(4) dopamine receptor (Homo sapiens)" observation_type=pKi value=6.15
molecule=COc1cccc(C(=O)CCCCCN2CCN(c3ccc(Cl)cc3)CC2)c1 tested_on="D(4) dopamine receptor (Homo sapiens)" observation_type=pKi value=6.55

P. COc1ccc(-c2cn(CCCCN3CCN(c4ccccc4OC)CC3)nn2)cc1
Q. COc1cc2c(cc1OC)Cc1ccccc1CCCN(C)CC2
R. COc1c(C(=O)NC[C@@H]2CCN(Cc3ccccc3)C2)cc(Br)c2ccccc12 (stereo in doubt; 3k)
S. c1ccc(C[n+]2cc[n+](-c3cccc4[nH]cnc34)cc2)cc1
T. Fc1ccc(OC[C@@H]2CC[C@H]3CN(c4ccc(Cl)cn4)CCN3C2)cc1
// query Arrange these 5 molecules in increasing order of pKi. In your reply, arrange the labels in the requested order.
// result Q, P, R, S, T
(Q: 5.30, P: 6.40, R: 6.89, S: 7.33, T: 8.49)

P. c1ccc(CCN2CCC(c3cc(-c4ccncc4)n[nH]3)CC2)cc1
Q. O=C1CCc2ccccc2N1CCCN1CCC(CCCCCCCO)CC1
// query Quick one: lower pKi, P or Q ? Lab log: write the label of the selected item as the result.
// result Q
(Q: 7.00, P: 7.28)

A. O=[N+]([O-])c1cccc(-c2cc(CCCCN3CCN(c4ccccc4)CC3)on2)c1
B. COc1ccc2c3c(c(=O)oc2c1)CN(C(=O)c1ccccc1)CC3
// query Between A and B , whose recorded pKi is greater? Could you answer with the label of the item you picked?
// result B

A. Clc1ccc(N2CCN(Cc3cnn4c(N5CCN(Cc6ccccc6)CC5)cccc34)CC2)cc1
B. CCC(C)(C)C(=O)NCCCCN1CCN(c2ccc(Cl)cc2)CC1
// query Field: entry with larger pKi (options A / B ). # respond with the chosen item's label
// result B
(B: 7.80, A: 6.74)

* * *

- tested-on: D(4) dopamine receptor (Homo sapiens, UniProt P21917)
- Sequence (P21917 whole entry): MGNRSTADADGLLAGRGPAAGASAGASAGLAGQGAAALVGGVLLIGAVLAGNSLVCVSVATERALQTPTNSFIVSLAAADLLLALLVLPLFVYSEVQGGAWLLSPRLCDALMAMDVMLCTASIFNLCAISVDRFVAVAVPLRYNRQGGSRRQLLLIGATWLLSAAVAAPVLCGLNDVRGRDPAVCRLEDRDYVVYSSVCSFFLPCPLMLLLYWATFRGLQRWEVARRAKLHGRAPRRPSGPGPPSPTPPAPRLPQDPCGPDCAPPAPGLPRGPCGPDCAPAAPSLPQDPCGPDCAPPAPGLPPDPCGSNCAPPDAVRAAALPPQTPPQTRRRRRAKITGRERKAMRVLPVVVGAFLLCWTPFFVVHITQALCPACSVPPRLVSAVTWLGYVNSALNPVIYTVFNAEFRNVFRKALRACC
Compiled notes: published Ki values involving D(4) dopamine receptor (Homo sapiens, UniProt P21917).
observation-type: Ki (nM)

The examples below pair each entry with its known result.
structure_smiles_string=O=C(NCCCCN1CCN(c2cccc(Cl)c2Cl)CC1)c1cccc2c1-c1ccccc1C2=O observation_type=Ki value=1850
structure_smiles_string=O=C(c1ccc2ccccc2c1)N1CCC(NCCc2ccccc2)CC1 observation_type=Ki value=210
structure_smiles_string=O=C(CCCC(=O)OC1(c2ccc(Cl)cc2)CCN(CCCC(=O)c2ccc(F)cc2)CC1)OC1(c2ccc(Cl)cc2)CCN(CCCC(=O)c2ccc(F)cc2)CC1 observation_type=Ki value=33
structure_smiles_string=CCCCn1cc(CCCOc2ccc(CN3CCN(c4ccccc4OC)CC3)cc2OC)nn1 observation_type=Ki value=7.2

A. CC1(C(=O)NCCN2CCN(c3ccc(Cl)cc3)CC2)CCCCC1
B. COc1cc(CN2CCN(c3ccc(Cl)cc3)CC2)ccc1OCCF
// query Which gives the smaller Ki number: A or B ? Give the label under which the chosen entry appears.
// result A

a. CN1CCc2cc(Cl)c(O)cc2[C@H]2c3cccc(C#N)c3CC[C@@H]21
b. O=Cc1cnn2ccc(OCCCCN3CCN(c4cccc(Cl)c4Cl)CC3)cc12
c. O=c1c(CO)coc2cc(OCCCN3CCC(c4noc5cc(F)ccc45)CC3)ccc12
// query Kindly order the items shown according to Ki, from the highest value down. Output the labels ranked as instructed.
// result a, c, b

1. COc1cc(CN2CCN(c3ccccc3OC)CC2)ccc1OCCCc1cn(CCCCCCCCn2cc(CCCOc3ccc(CN4CCN(C5CCCCC5)CC4)cc3OC)nn2)nn1
2. CC(=O)NC1(c2ccc(Cl)cc2)CCN(Cc2c[nH]c3ccccc23)CC1
// query Which has the higher Ki, 1 or 2 ? State the label of the item chosen.
// result 2

A. COc1cc(N)c(Cl)cc1C(=O)NCCN1CCN(c2ccccc2OC)CC1
B. Clc1ccc(-n2cc(COCCN3CCN(c4ccccc4)CC3)cn2)cc1
C. Cc1cccc(N2CCN(Cc3ccc4ccc(=O)oc4c3)CC2)c1
// query Order the entries by their reported Ki, beginning at the minimum. Order the labels as requested and list them.
// result A, C, B
(A: 19 nM, C: 32 nM, B: 100 nM)

A. CC(C)(C)C(=O)NCCN1CCN(c2ccc(Cl)cc2)CC1
B. Cc1ccccc1OCCNCCCOc1ccccc1
// query Field: lower Ki | Options: A / B Select an item and report its label.
// result A
(A: 25.1 nM, B: 74 nM)

I. O=C(NCCCCN1CCN(c2cccc(Cl)c2Cl)CC1)C1c2ccccc2-c2ccccc21
II. COc1ccc(-c2cc(CCCCN3CCN(C(c4ccccc4)c4ccccc4)CC3)on2)cc1OC
// query For the pair I and II , which entry has the numerically smaller recorded Ki? Identify your selection by its label.
// result I
